assayed system: AMP-activated protein kinase, AMPK (Homo sapiens) (UniProt P54646+O43741+P54619+Q9UGJ0+Q9Y478+Q13131+Q9UGI9)
protocol notes: AMP-dependent Kinase enzyme assay. An in vitro enzyme assay that detects ADP turnover that is directly proportional to AMPK activity. This uses naive AMPK that is activated during the assay with MK-8722
Format: functional
Design: scale not given: direction of the effect not stated beside the values
condition: 30 µM
outcome measure: Percent Effect (%)
Give bare numbers, in %.

Consider the following illustrative entries.
[Q] // query Percent Effect value for entry Cn1cc(N2CCC(NC(=O)c3c(F)cccc3F)C2=O)cn1 (stereo unspecified)
[A] 0.96

[Q] Also c1ccc(-c2ccc3nc(C4CCN(CC5CC5)CC4)nn3c2)cc1 ?
[A] 2.06

[Q] Also OCCN1CCOC2(CCCN(c3cccc(F)c3)C2)C1 (stereo unspecified) ?
[A] 5.94

// for each compound in input: emit Percent Effect
1. CNS(=O)(=O)c1ccc(C(=O)N2CCCC2c2cnn(C)c2)o1 (stereo unspecified)
2. COc1c(CNC(c2ccc(F)cc2)C(C)(C)C)c(C)nn1C (stereo unspecified)
3. Cc1cnn(CCNCc2csc(-c3ccc4c(c3)OCO4)n2)c1

[A]
[-0.508, -4.48, -1.92]

====

assayed system: Tyrosyl-tRNA synthetase, putative (Trypanosoma cruzi (strain CL Brener)) (UniProt Q4DSP6)
Sequence (Q4DSP6 as listed by the source): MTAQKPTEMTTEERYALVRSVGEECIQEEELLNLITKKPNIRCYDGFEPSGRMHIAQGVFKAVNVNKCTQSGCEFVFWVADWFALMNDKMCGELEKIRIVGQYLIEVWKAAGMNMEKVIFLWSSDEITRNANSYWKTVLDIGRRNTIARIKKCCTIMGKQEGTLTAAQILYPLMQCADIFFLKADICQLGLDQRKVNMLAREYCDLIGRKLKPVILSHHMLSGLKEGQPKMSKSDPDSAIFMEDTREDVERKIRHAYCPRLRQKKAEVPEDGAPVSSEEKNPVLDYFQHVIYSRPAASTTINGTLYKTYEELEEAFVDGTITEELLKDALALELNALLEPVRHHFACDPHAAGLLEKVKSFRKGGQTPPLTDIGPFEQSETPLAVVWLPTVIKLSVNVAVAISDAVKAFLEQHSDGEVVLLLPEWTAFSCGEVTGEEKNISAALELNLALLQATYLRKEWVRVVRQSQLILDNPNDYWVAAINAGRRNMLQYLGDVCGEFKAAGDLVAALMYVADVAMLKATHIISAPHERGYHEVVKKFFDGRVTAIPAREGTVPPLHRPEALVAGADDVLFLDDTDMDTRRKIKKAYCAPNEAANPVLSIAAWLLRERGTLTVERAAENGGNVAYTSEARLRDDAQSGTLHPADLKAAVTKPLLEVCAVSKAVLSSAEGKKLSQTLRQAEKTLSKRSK
protocol notes: Trypanosoma cruzi tyrosyl tRNA synthetase (TcYRS) _High Tyrosine SOP; further: in the data most compounds retested in dose-response had high values
Format: functional
Parameters: scale not given: direction of the effect not stated beside the values
condition: 30 µM
Provide the reported Percent Effect of each item.
One number for each entry, in %.

Consider the following illustrative entries.
[Q] // query Percent Effect value for entry COc1c(CNCCNC(=O)Cc2ccc(F)cc2)c(C)nn1C
[A] 1.98

[Q] Also O=C(CCc1nccs1)N1CCN(c2ccccc2F)CC1 ?
[A] 2.46

[Q] Also CC(OCC1CC1)C(=O)N1CCCN(Cc2nccn2C)CC1 (stereo not drawn) ?
[A] 3.12

[Q] Also CN(C)C(=O)[C@@H]1CCO[C@@H]2CCN(Cc3ccccc3)C[C@@H]21 ?
[A] 7.92

[Q] Also COc1cccc(CN2C[C@@H]3COC[C@]3(COCc3ccncc3)C2)c1 ?
[A] 2.16

// for each molecule in input: emit Percent Effect
1. Cc1cc(N(C)Cc2noc(C)n2)n2nc(C)c(C)c2n1
2. COc1ccc(C2(NC(=O)CCn3cncn3)CCCCC2)cc1
3. O=C(NCC1CC1)[C@H]1C[C@@H]2CN(S(=O)(=O)Cc3ccccc3)C[C@H]1O2

[A]
4.21
3.23
0

====

assayed system: Ubiquitin-activating enzyme e1, putative (Leishmania donovani (strain BPK282A1))
Sequence (whole entry): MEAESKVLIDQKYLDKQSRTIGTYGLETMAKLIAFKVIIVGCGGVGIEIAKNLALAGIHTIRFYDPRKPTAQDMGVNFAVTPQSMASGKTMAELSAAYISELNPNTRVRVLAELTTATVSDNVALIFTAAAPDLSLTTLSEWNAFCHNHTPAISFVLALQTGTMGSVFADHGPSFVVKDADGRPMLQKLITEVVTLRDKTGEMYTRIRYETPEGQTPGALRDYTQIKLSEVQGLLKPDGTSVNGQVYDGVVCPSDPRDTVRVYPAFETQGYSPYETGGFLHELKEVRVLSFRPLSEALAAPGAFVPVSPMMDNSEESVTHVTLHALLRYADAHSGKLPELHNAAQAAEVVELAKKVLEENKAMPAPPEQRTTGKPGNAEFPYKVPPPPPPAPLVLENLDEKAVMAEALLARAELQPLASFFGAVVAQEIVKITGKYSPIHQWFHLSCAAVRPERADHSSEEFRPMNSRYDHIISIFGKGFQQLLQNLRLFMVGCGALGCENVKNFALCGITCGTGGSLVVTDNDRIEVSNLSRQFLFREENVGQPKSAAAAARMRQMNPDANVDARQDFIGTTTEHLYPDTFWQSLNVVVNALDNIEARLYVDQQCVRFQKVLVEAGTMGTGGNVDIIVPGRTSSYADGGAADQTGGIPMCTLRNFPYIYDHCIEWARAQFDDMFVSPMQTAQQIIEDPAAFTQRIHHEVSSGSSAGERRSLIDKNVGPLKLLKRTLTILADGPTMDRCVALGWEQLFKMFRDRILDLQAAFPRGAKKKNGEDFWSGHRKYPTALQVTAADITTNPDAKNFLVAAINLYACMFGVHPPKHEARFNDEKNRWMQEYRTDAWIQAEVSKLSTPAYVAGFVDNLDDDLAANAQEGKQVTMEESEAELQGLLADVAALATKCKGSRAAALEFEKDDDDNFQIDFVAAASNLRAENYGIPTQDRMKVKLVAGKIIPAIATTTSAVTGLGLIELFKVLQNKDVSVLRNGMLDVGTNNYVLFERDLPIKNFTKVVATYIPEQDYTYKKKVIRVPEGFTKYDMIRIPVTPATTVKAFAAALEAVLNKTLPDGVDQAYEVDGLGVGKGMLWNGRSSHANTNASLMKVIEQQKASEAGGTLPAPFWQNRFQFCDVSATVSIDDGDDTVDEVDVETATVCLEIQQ
protocol notes: Leishmania donovani Ubiquitin Activating Enzyme (LdE1)
Type: functional
Design: scale not given: direction of the effect not stated beside the values
condition: 30 µM
Results with a measured potency or affinity are listed apart.
outcome measure: Percent Effect (%)
One number for each entry, in %.

Consider the following illustrative entries.
[Q] Lab note: need Percent Effect with Ubiquitin-activating enzyme e1, putative (Leishmania donovani (strain BPK282A1)) for entry Cn1ccnc1CN(CCCO)C1CCCc2ccccc21 (stereo not drawn) , please look it up.
[A] 5.26

[Q] Also Cc1nnc(N2CCC(CS(N)(=O)=O)CC2)c(C#N)c1C ?
[A] 2.6

// switching to the query compound
[Q] Lab note: need Percent Effect with Ubiquitin-activating enzyme e1, putative (Leishmania donovani (strain BPK282A1)) for entry Cn1ccnc1CN1CCN(c2ccc(C#N)cc2F)CC1 , please look it up.
[A] 21.6

====

Provide the reported Percent Effect of each item.
assayed system: AMP-activated protein kinase, AMPK (Homo sapiens) (UniProt P54646+O43741+P54619+Q9UGJ0+Q9Y478+Q13131+Q9UGI9)
protocol notes: AMP-dependent Kinase enzyme assay. An in vitro enzyme assay that detects ADP turnover that is directly proportional to AMPK activity. This uses naive AMPK that is activated during the assay with MK-8722
Format: functional
Design: scale not given: direction of the effect not stated beside the values
condition: 30 µM
Numbers only, in %.

Consider the following illustrative entries.
[Q] // query Percent Effect value for entry O=C(c1cccnc1-n1cncn1)N1CCc2ccccc2C1
[A] -4

[Q] Also COCCO[C@@H]1C[C@H]2CN(C(=O)c3cnccn3)CCN2C1 ?
[A] -0.698

[Q] Also O=C(c1ccc[nH]1)N1CCN(CC2CCOc3ccccc3C2)CC1 (stereo not given) ?
[A] -3.67

// for each compound in input: emit Percent Effect
1. O=C(NCc1ccc(-n2cncn2)nc1)c1ccoc1
2. Cc1nn(C)c(Cl)c1C1CCCN1C(=O)c1cc(Cl)c[nH]1 (stereo not given)

[A]
-18.3
0.443

// for each compound in input: emit Percent Effect
1. O=C(O)C1(Cc2cc(-c3cccc(F)c3)no2)CCOCC1
2. O=C(c1ccc(Br)o1)N1CCCC(n2cncn2)C1 (stereo not given)
3. COCCN(C)CCN1CC2(CCN(C(=O)C3CCOC3)CC2)OC1=O (stereo not given)
4. O=C(NCCC(=O)N1CCCC1)c1nn(-c2ccccc2F)cc1O
5. Cc1ccc(CNC(=O)CN2CCN(CC(O)C3CC3)CC2)cc1 (stereo not given)
6. O=C(NCc1nnc2ccccn12)N1CCc2sccc2C1

[A]
11.7
0.96
9.58
-8.26
-0.209
6.9

====

assayed system: Ubiquitin-activating enzyme e1, putative (Leishmania donovani (strain BPK282A1))
protocol notes: Leishmania donovani Ubiquitin Activating Enzyme (LdE1)
Assay type: functional
Parameters: scale not given: direction of the effect not stated beside the values
condition: 30 µM
Results with a measured potency or affinity are listed apart.
outcome measure: Percent Effect (%)
Give bare numbers, in %.

Consider the following illustrative entries.
[Q] // query Percent Effect value for entry CC(=O)N1CCCC1c1nccnc1Nc1cccc(C)n1 (stereo not given)
[A] -5.33

[Q] Also O=C(c1ccncc1F)N1CCc2ncnc(-c3ccncc3)c2CC1 ?
[A] 5.41

[Q] Also Cc1ccc(CNCc2nnc3n2CCCC3C(F)(F)F)s1 (stereo not given) ?
[A] 8

// for each molecule in input: emit Percent Effect
1. Cn1cc(CC2CCN(C(=O)NCc3cn4ccsc4n3)C2)cn1 (stereo not given)
2. Cc1csc(NC(=O)CN2CCC(c3ccnn3CCO)CC2)n1
3. O=C(NCCNc1ncccn1)c1ccc(-c2ccco2)[nH]c1=O
4. CCc1ccc(CNC(=O)N2CCN(Cc3cc(C)no3)CC2)s1

[A]
1. 13.2
2. 25.3
3. 27
4. 15.8

// for each molecule in input: emit Percent Effect
1. CCCNC(=O)C(C)NC(=O)CCc1ccccc1Br (stereo not given)
2. COc1cc(CNCCc2nc(C)cs2)cc2c1OCCO2
3. Cc1cc(F)c(S(=O)(=O)NCCCN2CCC(O)CC2)cc1F
4. Cc1nn(C)c(C)c1C(=O)N1CCOCC1CC(=O)c1ccco1 (stereo not given)

[A]
1: 4.17; 2: 5.26; 3: 5.2; 4: 0

// for each molecule in input: emit Percent Effect
1. Cn1ccnc1CN1CCC2(CC(=O)N(c3cccc(F)c3)C2)C1 (stereo not given)
2. c1cncc(OCc2nnn3c2CN(Cc2ccsc2)CCC3)c1
3. Cc1cc(N2CCCN(C(=O)Cc3ccc(O)c(Cl)c3)CC2)ccn1
4. CC1CCN(S(=O)(=O)c2cccn(CC(=O)NC3CCCC3)c2=O)CC1
5. CN(Cc1ccco1)Cc1ccccc1CNC(=O)c1cc[nH]n1

[A]
1. 10.4
2. 2.67
3. 13.7
4. 5.48
5. 0

// for each molecule in input: emit Percent Effect
1. CC(C)(C)c1ncc(C(=O)NCCNC(=O)c2ccccc2)s1
2. CC(C)c1cc(NCC(O)CO)n2nccc2n1 (stereo not given)
3. CCCc1nnsc1C(=O)NCC1CCN(S(C)(=O)=O)CC1
4. CCC(C)c1noc(C2CCN(C(=O)c3cccs3)CC2)n1 (stereo not given)

[A]
1. 21.1
2. 8.11
3. 16.4
4. 7.79
